// values below are reported GI50
# Test system: HOP-62
# measurement_protocol: NCI tumour cell line growth inhibition, 48 h
Active and inactive are the calls of the source. Cut-off read from the data, not from the text of the source: active = GI50 up to about 1.1 µM and inactive = higher.

| compound | GI50 |
| --- | --- |
| O=C1C=C(Nc2ccccc2C(=O)c2ccccc2)c2ccccc2C1=O | > 100 µM (inactive) |
| CC(=O)CC1(OC(=O)C2C(C=C(C)C)C2(C)C)C(=O)Nc2ccccc21 (stereo unspecified) | > 100 µM (inactive) |
| CCOC(=O)CC1(N)CC2c3ccccc3OC(=O)C2C(=O)N1 (stereo unspecified) | > 100 µM (inactive) |
| CCCCCCCCCCCCCC(=O)NCC(OCC)OCC | > 100 µM (inactive) |
| C=CCc1cccc(C(=O)/C=C(O)/C=C/c2ccccc2Cl)c1O | 16.6 µM (inactive) |
| COc1ccc(S(=O)(=O)N/N=C/CN2C(=O)c3ccccc3C2=O)cc1 | > 100 µM (inactive) |
| COc1cc2noc(-c3ccccc3)c2cc1OC | 22.4 µM (inactive) |
| c1ccc(CSC2(SCc3ccccc3)CCCC2)cc1 | > 10 µM (inactive) |
| O=c1[nH]c(=O)n(C2CC(O)C(CO)O2)cc1OCC1CCCCC1 (stereo unspecified) | > 100 µM (inactive) |
| O=[N+]([O-])c1cccc(C2=NN(c3ccccc3)C3c4ccccc4OCC23)c1 (stereo unspecified) | > 100 µM (inactive) |
| C(/C=N/N=C1NCCN1)=N\N=C1NCCN1 | > 100 µM (inactive) |

* * *

# maps each entry to its GI50
# Tested on: SF-295
# measurement_protocol: NCI tumour cell line growth inhibition, 48 h
The source made the active and inactive calls. Rule as the data show it: active = GI50 up to about 1.1 µM and inactive = higher.
measurement_name: GI50

| compound | measurement_name | assay_result |
| --- | --- | --- |
| O=C1c2ccccc2N2OC3(N4CCCC4)CCCCC3C12c1ccccc1 (centres undefined) | GI50 | 18.3 µM (inactive) |
| CC(=O)OCC1OC(n2c3c(c(-c4ccco4)c(C#N)c2=S)CCC3)C(OC(C)=O)C(OC(C)=O)C1OC(C)=O (centres undefined) | GI50 | > 100 µM (inactive) |
| CC(C)CCNC(=O)c1ccc(CNC(=O)/C=C/c2ccc3c(c2)-c2ccccc2C3)cc1 | GI50 | 30.7 µM (inactive) |
| Nc1ncnc2c1ncn2CCCC(c1ccccc1)P(=O)(O)O (centres undefined) | GI50 | > 100 µM (inactive) |

* * *

# System: HCC 2998
# measurement_protocol: NCI tumour cell line growth inhibition, 48 h
Where a name gives a salt, the structure may show the parent alone. Activity calls are given as the source filed them. Cut-off read from the data, not from the text of the source: active = GI50 up to about 1.1 µM and inactive = higher. Where a SMILES comes first, the peptide text is derived from it. [ ]: non-standard residue; d: D form. The star is where a group is joined. Cbz = O=C(OCc1ccccc1)*; Aib = CC(C)(N)C(=O)O
Labels: class 1 (active), class 0 (inactive)

| compound | label |
| --- | --- |
| O=C(CCCCCNC(=O)c1ccc(Cl)cc1)NO | class 0 |
| CC(C)CC(=O)NC(NC(C)C)(C(F)(F)F)C(F)(F)F | class 0 |
| CNC(=O)N(CCC#N)[C@H]1CCCC[C@@H]1N(C(=O)NC)c1ccccc1 | class 0 |
| C[C@@H](c1ccccc1)N1CN(C(=O)OCc2ccccc2)C(C)(C)CC1=O | class 0 |
| O=C(O)[C@@H]1CSCN1C(=O)[C@@H]1CCC(=S)N1 | class 0 |
| COc1cccc(Nc2nc(NNC(=O)Cc3ccccc3)nc(NNC(=O)c3ccncc3)n2)c1 | class 0 |
| COc1ccc2c(=O)c(-c3cc(OC)c(OC)cc3OC)coc2c1 | class 0 |
| C/C=C/C(C/C=C(\C)CO[Si](C)(C)C(C)(C)C)O[Si](C)(C)C(C)(C)C (stereo unspecified) | class 0 |
| COC(=O)NNC(c1ccc(Cl)cc1)c1ccc(Cl)cc1 | class 0 |
| CNC1c2ccccc2C(=O)c2cc3c(cc21)OCCOCCOCCOCCO3 (stereo unspecified) | class 0 |
| C=CCNC(=O)/C(Cc1cc(Br)c(OC)c(Br)c1O)=N\O | class 0 |
| Cc1nn(C(=O)c2ccncc2)c2c1C(c1ccccc1[N+](=O)[O-])SC(=N)N2 (stereo unspecified) | class 0 |
| CC/C(=C(\c1ccccc1)c1ccc(OCCN(C)C)cc1)c1ccccc1 [TAMOXIFEN CITRATE] | class 0 |
| CCOC(=O)C(=O)Nc1c(F)cc(F)cc1Br | class 0 |
| CC(=O)OC(OC(C)=O)n1cc(C=O)c2ccccc21 | class 0 |
| N#C/C(=C\N1CCNC1=S)C(=O)c1ccc2ccccc2c1 | class 0 |
| O=c1[nH]c(=O)n(C2OC(CO)C(O)C(F)C2O)cc1F (stereo unspecified) | class 0 |
| CCOS(=O)(=O)c1ccc(-c2c3nc(c(-c4ccc(S(=O)(=O)OCC)cc4)c4ccc([nH]4)c(-c4ccc(S(=O)(=O)OCC)cc4)c4nc(c(-c5ccc(S(=O)(=O)OCC)cc5)c5ccc2[nH]5)C=C4)C=C3)cc1 | class 0 |
| CC(C)(C)NC1C2CCC(C)(C1O)C2(C)C (stereo unspecified) | class 0 |
| COc1ccc(CCCCl)c(C2=NCCc3cc(OC)c(OC)cc32)c1 | class 0 |
| CCC1(O)C(=O)OCc2c1cc1n(c2=O)Cc2cc3c(N)cccc3nc2-1 (stereo unspecified) | class 1 |
| CC(=O)C1CC[C@@H]2[C@H](CC[C@]3(C)[C@@H](O)CC[C@@H]23)[C@H]1C(=O)O (stereo partly specified) | class 0 |
| C[C@]12CC[C@H]3[C@@H](CCC4=CC(=O)CC[C@@]43C)[C@@H]1CC[C@@H]2C(=O)COS(=O)(=O)c1ccc(Br)cc1 | class 0 |
| CC(=O)OCCn1c(Cc2ccc(C)cc2)nn(C(C)=O)c1=O | class 0 |
| COc1ccc(/N=C2\C(=N/c3ccc(OC)cc3)N(c3ccccc3[N+](=O)[O-])C(=S)N2c2ccc(OC)cc2)cc1 | class 0 |
| O=C(Nc1ccc(Cl)cc1)NS(=O)(=O)c1coc2ccccc2c1=O | class 0 |
| O=C(O)Cc1cc(F)ccc1C(=O)O | class 0 |
| Cc1noc(NS(=O)(=O)c2ccc(NC(=O)c3ccc4[nH]c5ccccc5c(=O)c4c3)cc2)c1C | class 0 |
| CC(C)(NC(=O)C(C)(C)NC(=O)OCc1ccccc1)C(=O)O (Cbz-[Aib]-[Aib]-OH) | class 0 |
| [C-]#[N+]C1(C(=O)OCC)CC1 | class 0 |
| Oc1[nH]c(Nc2cc(Cl)cc(Cl)c2)nc2ncnc1-2 | class 0 |
| Cc1ccc(-c2c(C#N)c(-c3ccccc3)n(NS(=O)(=O)c3ccccc3)c(=O)c2C#N)cc1 | class 0 |
| COc1ccc(NC(=O)c2oc3cc(O)ccc3c(=O)c2C)c([N+](=O)[O-])c1 | class 0 |
| C[C@H](CS)C(=O)N1c2ccccc2C[C@H]1C(=O)O | class 0 |
| O=S(=O)(O)c1c(Cl)c(Cl)c(O)c2ncccc12 | class 0 |
| Cc1ncc([N+](=O)[O-])n1CCNC(=O)CCCn1ccnc1[N+](=O)[O-] | class 0 |
| CC(=O)N1c2cc(/N=N/N(C)C)ccc2NC(=O)CC1C (stereo unspecified) | class 0 |
| CC(Nc1cc(=O)n(C)c(=O)[nH]1)c1ccccc1 (stereo unspecified) | class 0 |
| Nc1nc(-c2ccccc2)cc(-c2ccc(OCc3ccccc3)cc2O)n1 | class 0 |
| COc1ccccc1-c1cc(=O)c2ccccc2[nH]1 | class 0 |
| Oc1c2c(c(O)c3ccccc13)C1(N=N2)c2ccccc2Oc2ccccc21 | class 0 |
